- assay target: recombinant CD81-LEL (GST tag) (Homo sapiens, UniProt P60033)
- Construct: the large extracellular loop of CD81 (CD81-LEL); gift of Dr. Shoshana Levy, Stanford University
- Sequence (P60033 113-201 limits assumed): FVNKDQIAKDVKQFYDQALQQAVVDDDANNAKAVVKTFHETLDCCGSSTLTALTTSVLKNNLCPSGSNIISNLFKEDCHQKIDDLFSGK
- method: Surface plasmon resonance (Biacore T200) binding of ligands to immobilized recombinant CD81-LEL
- experimental parameters: Table A; ligand 600 μM in PBS-0.05% Tween-80; CD81-LEL-GST on CM5 chip
Task for the reader: assign each of the following compounds its reported SPR Response Units.
API: value field is a number in RU; no unit string.

[ask] What value of measured SPR Response Units is listed for COc1cc(-c2ccc(Nc3ccccc3C(=O)O)c(OC)c2)ccc1Nc1ccccc1C(=O)O [Ligand 73735] ?
[reply] 1957.8

[ask] What value of measured SPR Response Units is listed for CC(C)(C)c1ccc(NS(=O)(=O)c2ccc(N)cc2)cc1 [Ligand 7436] ?
[reply] 78.4

[ask] What value of measured SPR Response Units is listed for N=C(N)N/N=C/c1c(Cl)cccc1Cl [Ligand 68982] ?
[reply] 41.2

[ask] What value of measured SPR Response Units is listed for COc1ccccc1/C=C(\C#N)C(=O)O [Ligand 638134] ?
[reply] 25

[ask] What value of measured SPR Response Units is listed for CC(C)CNC(=O)/C=C\C(=O)O [Ligand 55573] ?
[reply] 10.6

[ask] What value of measured SPR Response Units is listed for O=C(O)CCCCC1SCC2NC(=O)NC21 (stereo not shown) [Ligand 63865] ?
[reply] 58

[ask] What value of measured SPR Response Units is listed for O=C(O)c1cc2cc(OCc3ccccc3)ccc2[nH]1 [Ligand 30930] ?
[reply] 67.7

Value source: patent US20150328329A1
